test system: Trypanosoma cruzi; experiment: Antitrypanosomal activity against Trypanosoma cruzi Tulahuen infected in mouse L929 cells assessed as parasite growth inhibition incubated for 96 hrs; assay type: functional, organism-based; conditions: L929, 96 h
MEASUREMENT KIND: IC50

> print(dat)
                              line.notation    result
1  O=C(c1ccc(OC(F)(F)F)cc1)N1CCN(c2cnccn2)CC1  > 175 µM
2       COc1ccc(C(=O)N2CCN(c3cnccn3)CC2)cc1  > 175 µM

## Task Specify measured IC50 for `O=C(c1cccc(C(F)(F)F)n1)N1CCN(c2cnccn2)CC1` .
## Result > 175 µM

Value source: ChEMBL document CHEMBL5370527
